Measurement description: in vitro
Test conditions: human, hek293t cells
# Lookup of reported viability at 48 h, 25 µM keyed by entry
# output: numeric value plus its unit

Solved cases below.
- O=C(CCl)NC1CCN(C(=O)C2COc3ccccc3O2)CC1 (centres unmarked) [5-C09]: 1.13%
- C=CCNC(=O)C(C#N)=Cc1cccc(C)c1 [8-D05]: 102%
- CC(CO)(Cc1ccc(F)cc1)NC(=O)CCl (centres unmarked) [7-F06]: 3.71%
- COc1cc(C=C(C#N)C(=O)Nc2ccc(F)cc2)cc(Cl)c1O [8-H07]: 87.7%
- C=CC(=O)Nc1cccc(C(F)(F)CF)c1 [2-O12]: 98.8%
- CC(=O)NCCc1ccc(C(=O)CCl)cc1 [10-N03]: 85.6%
- C=CC(=O)N(C)CC(=O)N1CCn2cc(C(F)(F)F)nc2C1 [3-A04]: 60.6%
- C=CC(=O)Nc1nn(C2CCCC2)c(C)c1Cl [1-O06]: 78.2%
- C=CCNC(=O)C(C#N)=Cc1cc(F)ccc1F [9-H07]: 111%
- O=C(CCl)NC1CCN(C(=O)COc2ccccc2)C1 (centres unmarked) [7-L03]: 0.757%

Consider the record given below.
Record request: viability at 48 h, 25 µM value, item CC(C)C(NC(=O)CCl)c1ccccc1 (centres unmarked) [4-K11]
3.98%

----------
# Lookup of reported viability at 48 h, 25 µM keyed by entry
Measurement description: in vitro
Test conditions: human, hek293t cells
# output: numeric value plus its unit

Solved cases below.
* N#CC(=Cc1ccc([N+](=O)[O-])cc1)C(=O)Nc1ccc(Cl)cc1 | 82.6%
* CCN(CC)S(=O)(=O)c1ccc(Cl)c(NC(=O)CCl)c1 | 0.662%
* O=C(CCl)NC1c2ccccc2CCC1n1ccnc1 (centres unmarked) | 95.8%
* CC(Cl)C(=O)NC(C)c1nc(-c2cccnc2)cs1 (centres unmarked) | 115%
* Cc1noc(C)c1C(C)CNC(=O)C(C)Cl (centres unmarked) | 115%

Record request: viability at 48 h, 25 µM value, item C=CC(=O)Nc1cc(S(=O)(=O)N2CCCCCC2)ccc1OC
1.58%

Cool, now C=CC(=O)N1CC(OCc2ccccc2F)C1
40.4%

Cool, now CC(NC(=O)C(C#N)=Cc1ccco1)c1cccc(-n2cccn2)c1 (centres unmarked)
95.9%

Cool, now COc1ccc(C=C(C#N)C(=O)Nc2ccc(C(=O)O)cc2)cc1C
108%

Cool, now O=C(CCl)NC(Cc1cccc(O)c1)c1ccccc1 (centres unmarked)
0.777%

Cool, now O=C1C=CC(=O)N1c1cccc(O)c1
68.4%

Cool, now Cc1nn(C)c(N2CCCN(C)CC2)c1CNC(=O)C(C)Cl (centres unmarked)
107%

Cool, now C=CC(=O)N1CCC(C(=O)N2CC=CCC2)(c2ccccc2)CC1
61.7%

Cool, now C=CC(=O)N1CCc2nn(C(C)C)c(=O)cc2C1
87.7%

Cool, now Cc1cccc(NC(=O)NC(=O)CCl)c1C
0.759%

Cool, now CC(Cl)C(=O)NCc1nc2cccnc2n1C (centres unmarked)
103%

Cool, now C=CC(=O)N1CCC(C(=O)N[C@H]2CCOc3c(F)cccc32)CC1
64.9%

Cool, now C=CC(=O)NCc1ccc(-c2noc(C)n2)cc1
94.1%

Cool, now C=CC(=O)N(C)Cc1cncn1C
61.2%

Cool, now Cc1nc2n(n1)CCN(C(=O)C(C)Cl)C2 (centres unmarked)
107%

Cool, now C=CC(=O)N1CCCC1c1c(C)nn(CC(C)C)c1Cl (centres unmarked)
119%

Cool, now CC(Cl)C(=O)Nc1ccc(C(=O)N(C)C2CCCN(C)C2)cc1 (centres unmarked)
76.4%

Cool, now C=CC(=O)NCCC(=O)N1CCSC(C)CC1 (centres unmarked)
91.8%
